Assay: qHTS of pediatric cancer cell lines to identify multiple opportunities for drug repurposing: Primary screen for Rh18 cells (AID 1347102); further: nearly all actives have a fitted effect of over 65% in size
Conditions: Rh18 rhabdomyosarcoma viability, CellTiter-Glo luminescence, 48 h; series mostly up to 46 µM
Results filed as inconclusive are left out. Active and inactive are the calls of the source. The call rests on the fitted dose curve; in most records, active means well fitted cell-killing curve with a large enough effect; inconclusive means small, poorly fitted or top-dose-only effect; inactive means flat fitted curve, though single readings scatter.
PROPERTY: outcome

Examples with their reported outcome follow.
COCCCCC(=NOCCN)c1ccc(C(F)(F)F)cc1    inactive
CC1(C)Cc2c(sc(NC(=S)NC(=O)c3ccccc3)c2C(=O)O)CO1    inactive
O=C1NC(=O)C(=Cc2ccc3c(c2)OC(F)(F)O3)S1    inactive
Cc1ccc([C@@H]2O[C@H](CO)[C@@H](O)[C@H](O)[C@@H]2O)cc1Cc1ccc(-c2ccc(F)cc2)s1    inactive

Query: So what's the measured outcome for this one? CC1CCC(C(=O)N(c2cc(C#CC(C)(C)C)sc2C(=O)O)C2CCC(O)CC2)CC1 (stereo unspecified)
Reply: inactive

Query: Cool, now `Oc1ccc(C2CCN(c3ccnc4ccccc34)CC2)cc1O`
Reply: inactive

Query: Cool, now `Nc1ncnc2c1ncn2[C@@H]1O[C@@H](CO)[C@H](O)[C@H]1O`
Reply: inactive

Query: Cool, now `O=c1[nH]cnc2c1ncn2[C@H]1CC[C@@H](CO)O1`
Reply: inactive

Query: Cool, now `CC(C)(C(=O)NCC(F)(F)C(F)(F)F)C(=O)N[C@@H]1C(=O)Nc2ccccc2-c2ccccc21`
Reply: inactive

Query: Cool, now `O=C1NCC2(CCN(CCc3ccccc3)CC2)O1`
Reply: inactive

Query: Cool, now `COc1ccc2cccc(CCNC(C)=O)c2c1`
Reply: inactive

----------
Assay: Quantitative High-Throughput drug screen in 47 multiple myeloma cell lines against the NCATS MIPE library collection: JJN3_DSMZ cell viability assay (AID 1918966; further: nearly all actives have a fitted effect of over 50% in size)
Conditions: JJN3 myeloma cells viability, CellTiter-Glo ATP, 48 h; series mostly up to 45.8 µM
Results filed as inconclusive are left out. The source made the active and inactive calls. Calls come from the whole dose curve; as a rule, active = well fitted cell-killing curve with a large enough effect; inconclusive = small, poorly fitted or top-dose-only effect, or effect the other way; inactive = no such curve, though single readings can be large or run the other way.
Please answer using one outcome listed in active, inactive

See these solved cases before continuing.
CC(C(=O)O)c1ccc(-c2ccccc2)c(F)c1 (stereo unspecified)    inactive
O=C(Nc1c(Cl)cncc1Cl)c1ccc(OC(F)F)c(OCC2CC2)c1    inactive
COc1cccc2c1CCCC2CCCN1CCN(C2CCCCC2)CC1 (stereo unspecified)    active
O=C(Nc1ccccc1-c1cn2c(CN3CCNCC3)csc2n1)c1cnc2ccccc2n1    active

Query: Given COc1ccc2c3c1OC1C[C@@H](O)C=C[C@@]31CCN(C)C2 (stereo partly specified) , state the outcome it received in this test.
Reply: active

Query: Cool, now `O=c1cc(-c2ccc(O)cc2)oc2cc(O)cc(O)c12`
Reply: active

Query: Cool, now `O=C(N[C@@H](c1ccccc1)[C@@H]1CCCCN1)c1cccc(C(F)(F)F)c1Cl`
Reply: inactive

Query: Cool, now `CN(C)C1CCN(C(=O)c2ccc(NC(=O)Nc3nc(N4CCOCC4)nc(N4CCOCC4)n3)cc2)CC1`
Reply: active

Query: Cool, now `CC(C)(C)COc1ccc(-n2cc(C(=O)O)cn2)cc1C#N`
Reply: inactive

Query: Cool, now `CC#CCn1c(N2CCC[C@@H](N)C2)nc2c1c(=O)n(Cc1nc(C)c3ccccc3n1)c(=O)n2C`
Reply: active

Query: Cool, now `O=C1C(Cl)=C(NCCN2CCOCC2)C(=O)c2ncccc21`
Reply: active

----------
Test: qHTS Screen of the MIPE 4.0 Collection Against Ewings Sarcoma (TC71) (AID 1259253); further: nearly all actives have a fitted effect of over 40% in size
Settings: TC71 Ewing sarcoma viability, CellTiter-Glo, 48 h; series mostly up to 45.8 µM
Records with an inconclusive call do not appear. Calls of active or inactive are those of the source. Calls follow the shape of the dose curve; as a rule, active = well fitted inhibition curve with a large enough effect; inconclusive = small, poorly fitted or top-dose-only effect; inactive = no such curve, though single readings can be large or run the other way.
Please answer using one outcome listed in active, inactive

See these solved cases before continuing.
CC(=Cc1ccccc1)C=C1SC(=S)N(CC(=O)O)C1=O    inactive
Oc1ccc(C2=Cc3ccc(O)cc3OC2)cc1    active
CC(=O)N(C)C1(c2ccccc2)CCN(CCC[C@]2(c3ccc(Cl)c(Cl)c3)CCCN(C(=O)c3ccccc3)C2)CC1    active

Query: Given `NC(=O)c1ccc2nc(-c3ccc(Oc4ccc(Cl)cc4)cc3)[nH]c2c1` , state the outcome it received in this test.
Reply: active

Query: Cool, now `Cc1ccc(/C=N/NC(=O)c2ccccc2Oc2ccccc2)o1`
Reply: active

Query: Cool, now `Cn1cc(C=C2C(=O)Nc3cccnc32)c2ccccc21`
Reply: inactive

----------
Assay: Quantitative High-Throughput drug screen in 47 multiple myeloma cell lines against the NCATS MIPE library collection: KMM1_JCRB cell viability assay (AID 1918960); further: nearly all actives have a fitted effect of over 30% in size
Details: KMM1 myeloma viability, CellTiter-Glo ATP luminescence, 48 h; series mostly up to 45.8 µM
Results filed as inconclusive are left out. Active and inactive are the calls of the source. Calls follow the shape of the dose curve; as a rule, active = well fitted cell-killing curve with a large enough effect; inconclusive = small, poorly fitted or top-dose-only effect, or effect the other way; inactive = no such curve, though single readings can be large or run the other way.
Please answer using one outcome listed in active, inactive

See these solved cases before continuing.
C[C@H](NC(=O)C(=O)Nc1ccccc1C(C)(C)C)C(=O)N[C@@H](CC(=O)O)C(=O)COc1c(F)c(F)cc(F)c1F    active
CN(C[C@@H]1COCCO1)S(=O)(=O)Nc1ccc2ccc3ncc(-c4cnn(C)c4)cc3c(=O)c2c1    active

Next compound, please.
Query: Given `CC(C)(C)C(=O)Oc1ccc2c(c1)nc(NC(=O)c1cccc([N+](=O)[O-])c1)n2CCCO` , state the outcome it received in this test.
Reply: inactive

----------
System: MKL-1
Assay: qHTS assay to identify novel small-molecules to repurpose for Merkel cell carcinoma treatment (AID 1296009); further: nearly all actives have a fitted effect of over 60% in size
Conditions: MCC and control cell lines, CellTiter-Glo viability, 72 h; series mostly up to 46 µM
Results filed as inconclusive are left out. Activity calls are given as the source filed them. Calls follow the shape of the dose curve; as a rule, active = well fitted inhibition curve with a large enough effect; inconclusive = small, poorly fitted or top-dose-only effect; inactive = flat fitted curve, though single readings scatter.
Please answer using one outcome listed in yes for active, no for inactive

See these solved cases before continuing.
O=C(NOCC(O)CO)c1cc(Br)c(F)c(F)c1Nc1ccc(I)cc1F (stereo not drawn)    no
CN(C)CCC(c1ccccc1)c1ccccn1 (stereo not drawn)    no
CCn1c(C(=O)N(C2CC2)C2CC2)cc2c3c(ncn3C)c(Nc3cc(C)n(C)n3)nc21    no

Query: Given `CC[C@H]1OC(=O)[C@H](C)C(=O)[C@H](C)[C@@H](O[C@H]2O[C@H](C)C[C@H](N(C)C)[C@@H]2O)[C@](C)(OC)C[C@@H](C)C(=O)[C@H](C)[C@H]2N(CCCCn3cnc(-c4cccnc4)c3)C(=O)O[C@]12C` , state the outcome it received in this test.
Reply: no

Query: Cool, now `CO[C@H]1C=CC=C(C)C(=O)NC2=CC(=O)C(NCCN(C)C)=C(C[C@@H](C)C[C@H](OC)[C@@H](O)[C@@H](C)C=C(C)[C@@H]1OC(N)=O)C2=O`
Reply: yes

Query: Cool, now COc1ccc(-c2oc3c(CC=C(C)C)c(OC4O[C@H](CO)[C@@H](O)[C@H](O)[C@@H]4O)cc(O)c3c(=O)c2OC2O[C@@H](C)[C@H](O)[C@@H](O)[C@@H]2O)cc1 (stereo partly drawn)
Reply: no

Query: Cool, now `CCN1CCC[C@H]1CNC(=O)c1cc(S(N)(=O)=O)ccc1OC`
Reply: no

Query: Cool, now CC(C(=O)O)c1ccc(-c2ccccc2)c(F)c1 (stereo not drawn)
Reply: no

Query: Cool, now `CN(C)Cc1ccc(-c2nc3cccc4c3n2CCNC4=O)cc1`
Reply: no

Query: Cool, now `O=c1ccn([C@@H]2O[C@H](CO)[C@H](O)[C@H]2O)c(=O)[nH]1`
Reply: no

Query: Cool, now `Cc1ccc(C(=O)Nc2cccc(C(F)(F)F)c2)cc1Nc1nc(-c2cccnc2)nc2c1cnn2C`
Reply: no

Query: Cool, now `Cc1ccc(/C=N/NC(=O)c2ccccc2Oc2ccccc2)o1`
Reply: no

Query: Cool, now CS(=O)(=O)N(Cc1ccco1)CC(O)Cn1c2ccccc2c2ccccc21 (stereo not drawn)
Reply: no

Query: Cool, now `COC[C@@H](c1ccc(C(F)(F)F)cc1)N1CCN(C2(C)CCN(C(=O)c3c(C)ncnc3C)CC2)C[C@H]1C`
Reply: no

Query: Cool, now C[C@]12CC[C@@H]3c4ccc(O)cc4C[C@@H](CCCCCCCCCS(=O)CCCC(F)(F)C(F)(F)F)[C@H]3[C@H]1CC[C@H]2O (stereo partly drawn)
Reply: no

----------
Experiment: NS1 protein of Zika virus - qHTS assay to identify small molecule inhibitors in human HEK 293 cells (AID 1347053); further: nearly all actives have a fitted effect of over 55% in size; further: potency means the concentration at half of the fitted maximal effect
Settings: HEK293 ZIKV MR766 infection, NS1 TR-FRET, 24 h; series mostly up to 46.1 µM
Records with an inconclusive call do not appear. Active and inactive are the calls of the source. Calls follow the shape of the dose curve; as a rule, active = well fitted inhibition curve with a large enough effect; inconclusive = small, poorly fitted or top-dose-only effect; inactive = no such curve, though single readings can be large or run the other way.
PROPERTY: Potency

Examples with their reported Potency follow.
CC[C@]1(O)C[C@@H]2CN(CCc3c([nH]c4ccccc34)[C@@](C(=O)OC)(c3cc4c(cc3OC)N(C)[C@H]3[C@@](O)(C(=O)OC)[C@H](OC(C)=O)[C@]5(CC)C=CCN6CC[C@]43[C@@H]65)C2)C1    inactive
CN[C@@H](C)C(=O)N[C@H]1CN(C(=O)CC(C)C)CC[C@H]2CC[C@@H](C(=O)NC(c3ccccc3)c3ccccc3)N2C1=O    inactive
O=C1c2c(O)cc(O)cc2O[C@H](c2cc(O)c(O)c(O)c2)[C@H]1O    inactive
CC(C)NCC(O)COc1cccc2[nH]ccc12 (stereo not drawn)    inactive
COc1cccc(-c2cc(=O)c3ccccc3o2)c1N    inactive

Query: So what's the measured Potency for this one? C=C1C(=O)[C@@]23C(CC[C@@H]1[C@H]2O)[C@@]12CO[C@]3(O)[C@@H](O)[C@@H]1C(C)(C)CC[C@@H]2O (stereo partly drawn)
Reply: 9.35 µM (active)

Query: Cool, now C=C1C(=O)OC2C=C(C)CCC=C(C)CCC12 (stereo not drawn)
Reply: inactive

Query: Cool, now `CC(C)(C)c1cc(C(=O)O)c(NC(=O)Nc2ccc3[nH]ncc3c2)s1`
Reply: inactive
